The reported measurements were obtained from PubChem BioAssay AID1347416.

ASSAY COMMENT: qHTS Validation assay for Inhibitors of Plasmodium falciparum Dd2 growth in vitro; note: nearly all actives have a fitted effect of over 70% in size
PARTICULARS: P. falciparum Dd2 in RBCs, SYBR Green growth, 72 h; series mostly up to 28.7 µM
Screen size: about 4,100 compounds; about 1,600 (39%) were called active. About 25% were inconclusive and are not listed. Calls come from the whole dose curve; as a rule, active = well fitted inhibition curve with a large enough effect; inconclusive = small, poorly fitted or top-dose-only effect; inactive = no such curve, though single readings can be large or run the other way. This is one part of the list.
Reply using exactly one outcome from active, inactive

MOLECULE: Cc1ccc(-n2c(C)cc(C(=O)OCC(=O)N(C)C3CCS(=O)(=O)C3)c2C)cc1 (stereo not given)
LABEL CLASS: active
//
MOLECULE: CCc1ccc(OCC(=O)N(Cc2ccc(C(C)C)cc2)C2CCS(=O)(=O)C2)cc1 (stereo not given)
LABEL CLASS: inactive
//
MOLECULE: COC[C@@H]1CN(Cc2cn[nH]c2-c2ccccc2)C[C@H]1c1nc(C)no1
LABEL CLASS: inactive
//
MOLECULE: CC(=O)NCCc1ncc(C)n1C1CCCCCC1
LABEL CLASS: inactive
//
MOLECULE: CCc1ccc(CN(C(=O)c2cc3ccccc3oc2=O)C2CCS(=O)(=O)C2)cc1 (stereo not given)
LABEL CLASS: inactive
//
MOLECULE: CNC(=O)[C@@H]1CN(Cc2ccc(C#N)cc2)C[C@H]1COC
LABEL CLASS: inactive
//
MOLECULE: CCOC(=O)C1CCN(Cc2cc(Cl)c3ccccc3c2O)CC1
LABEL CLASS: active
//
MOLECULE: Cc1ccccc1CN1C[C@@H]2C[C@@H](c3cn[nH]c3-c3ccccc3)N3CCC[C@@]23C1=O
LABEL CLASS: active
//
MOLECULE: CCn1ncc(Cl)c1C(=O)Nc1ccncc1
LABEL CLASS: inactive

Inquiry: Record request — test call for COCC(=O)N[C@H]1C[C@@H](CO)N(Cc2cn[nH]c2-c2ccccc2)C1
Reply text: inactive

* * *

ASSAY COMMENT: qHTS Validation assay for Inhibitors of Plasmodium falciparum Dd2 growth in vitro; note: nearly all actives have a fitted effect of over 70% in size
PARTICULARS: P. falciparum Dd2 in RBCs, SYBR Green growth, 72 h; series mostly up to 28.7 µM
Out of some 4,100 compounds screened, about 1,600 (39%) were called active. Not shown: some 25% with an inconclusive outcome. The call rests on the fitted dose curve; in most records, active means well fitted inhibition curve with a large enough effect; inconclusive means small, poorly fitted or top-dose-only effect; inactive means no such curve, though single readings can be large or run the other way. This is one part of the list.
Reply using exactly one outcome from YES for active, NO for inactive

Would you please look over these solved cases?
COMPOUND: CCN(CC)CCN1C(=O)c2ccccc2NC1c1ccc(Br)cc1 (stereo not given)
LABEL CLASS: YES

COMPOUND: C[C@H]1CN=C(N(C)C)N1CCC1CCCCC1
LABEL CLASS: NO

COMPOUND: Cc1ccc(C(=O)Nc2sc3c(c2C(=O)O)CCCCC3)o1
LABEL CLASS: NO

COMPOUND: O=C(C1Cn2cccc2C(=O)N1Cc1ccccc1)N1CCN(c2ncccn2)CC1 (stereo not given)
LABEL CLASS: NO

COMPOUND: Nc1ncnc2c1ncn2[C@H]1O[C@@H](CNS(=O)(=O)NC(=O)c2cccc(-c3noc(-c4ccccc4F)n3)c2)[C@H](O)[C@@H]1O
LABEL CLASS: NO

Inquiry: Record request — test call for COc1cc(NC(=O)CSc2nc3nc(C)c(Cc4ccc(C)cc4)c(C)n3n2)cc(OC)c1
Reply text: NO

Inquiry: Check COC(=O)c1cc(O)cc(OC)c1Oc1cc(C)cc(O)c1C(=O)O too.
Reply text: YES

Inquiry: Check c1ccc(Nc2nc(NCc3ccco3)c3ccccc3n2)cc1 too.
Reply text: YES

Inquiry: Check Cc1noc(-c2cn(C3CCN(C(=O)C(C)Oc4ccc(Cl)cc4)CC3)nn2)n1 (stereo not given) too.
Reply text: NO

Inquiry: Check CCN(CC)CCN1C(=O)c2ccccc2NC1c1ccc(C)cc1 (stereo not given) too.
Reply text: YES

* * *

ASSAY COMMENT: qHTS Validation assay for Inhibitors of Plasmodium falciparum Dd2 growth in vitro; note: nearly all actives have a fitted effect of over 70% in size; note: potency is the fitted concentration of half-maximal effect
PARTICULARS: P. falciparum Dd2 in RBCs, SYBR Green growth, 72 h; series mostly up to 28.7 µM
Screen size: about 4,100 compounds; about 1,600 (39%) were called active. About 25% were inconclusive and are not listed. This is one part of the list.
READOUT NAME: Potency

COMPOUND: COc1cc(/C=C(\C#N)c2nc3ccccc3[nH]2)cc(Cl)c1OCc1ccccc1Cl
VAL: 5.31 µM (active)
//
COMPOUND: CN(Cc1cccn1C)C(=O)C1CC1
VAL: inactive
//
COMPOUND: Fc1ccccc1Cn1nnc2c(-n3ccnc3)ncnc21
VAL: inactive
//
COMPOUND: CN(Cc1ccc(C2CC(=O)Nc3n[nH]c(C4CCC4)c32)o1)S(C)(=O)=O (stereo not given)
VAL: inactive
//
COMPOUND: COc1cc(NC(=O)c2cc([N+](=O)[O-])ccc2NC(=O)CNC2CCCCC2C)cc(OC)c1 (stereo not given)
VAL: 5.96 µM (active)

Inquiry: Which value of Potency has been reported for COc1ccc([C@@H]2CN(C(=O)CCc3c(C)noc3C)C[C@H]2N(C)C)cc1 in the records?
Reply text: inactive

Inquiry: Check CCNc1nc(OC)nc(Oc2ccc(=O)n(-c3ccccc3)n2)n1 too.
Reply text: 5.96 µM (active)

Inquiry: Check COc1cc(/C=C(\C#N)c2nc3ccccc3[nH]2)ccc1OCc1ccc(F)cc1 too.
Reply text: 5.31 µM (active)

Inquiry: Check CCc1ccc(N2CC(c3noc(-c4nccc5ccccc45)n3)CC2=O)cc1 (stereo not given) too.
Reply text: inactive

Inquiry: Check CCOC(=O)c1[nH]c(Cc2[nH]c(C(=O)OCC)c(C)c2CCC(=O)OC)c(CCC(=O)OC)c1C too.
Reply text: 5.31 µM (active)

* * *

ASSAY COMMENT: qHTS Validation assay for Inhibitors of Plasmodium falciparum Dd2 growth in vitro; note: nearly all actives have a fitted effect of over 70% in size
PARTICULARS: P. falciparum Dd2 in RBCs, SYBR Green growth, 72 h; series mostly up to 28.7 µM
Out of some 4,100 compounds screened, about 1,600 (39%) were called active. Another 25% or so got no clear call; they are omitted. Calls come from the whole dose curve; as a rule, active = well fitted inhibition curve with a large enough effect; inconclusive = small, poorly fitted or top-dose-only effect; inactive = no such curve, though single readings can be large or run the other way. Some of the results follow.
Reply using exactly one outcome from YES (active), NO (inactive)

COMPOUND: CCOC(=O)Cn1c(=O)oc2cc(S(=O)(=O)N3CCCC(C)C3)ccc21 (stereo not given)
LABEL CLASS: NO
--
COMPOUND: Cc1cc(NC(=O)CSc2nc3c(c(=O)n2Cc2ccccc2)SC(C)C3)no1 (stereo not given)
LABEL CLASS: NO
--
COMPOUND: O=S(=O)(c1ccc(F)cc1)N1CCN(C(=S)NCCc2ccccc2)CC1
LABEL CLASS: YES
--
COMPOUND: COc1ccc(S(=O)(=O)N2CCN(C(=S)NCC3CCCO3)CC2)cc1OC (stereo not given)
LABEL CLASS: YES
--
COMPOUND: Cc1noc(C)c1COC(=O)/C=C/c1ccc(Cl)cc1
LABEL CLASS: NO

Inquiry: Record request — test call for O=S(=O)(c1ccc(Cl)cc1)N1CCN(C(=S)NCC2CCCO2)CC1 (stereo not given)
Reply text: YES

Inquiry: Check CCOC(=O)c1[nH]c(C)c(CCC(=O)N2CCN(c3cccc(C)c3C)CC2)c1C too.
Reply text: YES

Inquiry: Check COc1ccccc1NC(=O)Cn1c(=O)n(CCC(=O)NCC2CCCO2)c(=O)c2cc(OC)c(OC)cc21 (stereo not given) too.
Reply text: NO

Inquiry: Check Cn1cnc(C(=O)NCC(=O)N2CCCCCNC(=O)CC2c2ccccc2)c1 (stereo not given) too.
Reply text: NO

Inquiry: Check CCO[C@H]1CN(C(=O)CCc2nc3c(C)c(C)ccc3[nH]2)C[C@@H]1O too.
Reply text: NO

Inquiry: Check Cc1ccccc1NC(=O)c1cc(C(=O)c2cc(Cl)ccc2O)cn(-c2ccccc2C)c1=O too.
Reply text: YES

Inquiry: Check O=C(CCC1CCN(S(=O)(=O)c2ccccc2)CC1)NCc1ccc(F)cc1 too.
Reply text: NO

Inquiry: Check Cc1ccc(NC(=O)c2cc(C(=O)c3cc(Cl)ccc3O)cn(-c3ccc(C)cc3)c2=O)cc1 too.
Reply text: YES

Inquiry: Check CCOC(=O)c1nnn(-c2nonc2N)c1-c1ccc(C)cc1 too.
Reply text: YES

Inquiry: Check CCOC(=O)c1nnn(-c2nonc2N)c1-c1ccc(Cl)cc1 too.
Reply text: YES

Inquiry: Check Cn1c(=O)c(=O)n(C)c2cc(N3CCCC3)c(NC(=O)c3ccccc3F)cc21 too.
Reply text: NO

Inquiry: Check COc1ccc(-c2nc(Cn3c(SCc4ccccc4F)nc4ccncc43)c(C)o2)cc1OC too.
Reply text: YES

Inquiry: Check CCOC(=O)c1[nH]c(C)c(CCC(=O)N2CCN(c3cc(C)ccc3C)CC2)c1C too.
Reply text: YES

Inquiry: Check COc1ccc2c(c1)CCc1c-2n[nH]c1C(=O)N1CCc2c(nc3cc(-c4ccccc4)[nH]n3c2=O)C1 too.
Reply text: NO

Inquiry: Check CS(=O)(=O)N1CCC(C2CCN(C(=O)Cc3ccc(Cl)cc3)C2)CC1 (stereo not given) too.
Reply text: NO
